Recorded values, source patent US20190062438A1.

- targetDesc: T1, soluble Homo sapiens CD131 comprising a C-terminal 6xHis tag (human, UniProt P32927 17-438)
- T1 construct: truncated after Ser438, C-terminal 6xHis; also called shCD131; shβc
- T1 sequence: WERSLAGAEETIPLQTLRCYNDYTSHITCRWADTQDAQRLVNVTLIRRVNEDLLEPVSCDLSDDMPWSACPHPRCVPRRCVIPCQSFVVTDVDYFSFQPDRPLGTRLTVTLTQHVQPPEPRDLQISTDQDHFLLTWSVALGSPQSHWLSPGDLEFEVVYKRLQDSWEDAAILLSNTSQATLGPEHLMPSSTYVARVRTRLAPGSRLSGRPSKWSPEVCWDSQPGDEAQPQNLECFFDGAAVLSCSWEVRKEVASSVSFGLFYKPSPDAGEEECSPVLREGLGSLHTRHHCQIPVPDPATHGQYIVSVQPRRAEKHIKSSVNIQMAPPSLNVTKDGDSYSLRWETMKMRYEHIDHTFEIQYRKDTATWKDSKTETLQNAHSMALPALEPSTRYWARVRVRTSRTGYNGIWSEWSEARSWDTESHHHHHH
- assayProcedure: SPR, Fab over captured shCD131
Let's look at some binders and their measured kon.
Give the number; M⁻¹ s⁻¹ is assumed, so skip it.

9A2-VR24.98 Fab (Fab, V domains shown, recombinant Fab) VH: EVQLLESGGGLVQPGGSLRLSCAASGFTFPWYRVHWVRQAPGKGLEWVSSIRSSGGFPHYNSVVKGRFTISRDNSKNTLYLQMNSLRAEDTAVYYCARFYDSFFDIWGQGTMVTVSS VL: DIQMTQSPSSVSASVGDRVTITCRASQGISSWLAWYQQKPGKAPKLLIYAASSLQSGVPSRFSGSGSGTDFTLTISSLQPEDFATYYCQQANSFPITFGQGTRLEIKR = 3.21e+06

Let us examine a further case.
What measured kon goes with 9A2-VR24.44 Fab (Fab, V domains shown, recombinant Fab) VH: EVQLLESGGGLVQPGGSLRLSCAASGFTFPWYRVHWVRQAPGKGLEWVSSIRSSGGFPYYHPSVKGRFTISRDNSKNTLYLQMNSLRAEDTAVYYCARFYDSFFDIWGQGTMVTVSS VL: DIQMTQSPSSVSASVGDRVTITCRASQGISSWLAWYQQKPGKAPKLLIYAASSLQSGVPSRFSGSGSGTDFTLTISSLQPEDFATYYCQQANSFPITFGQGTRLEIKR ?
3e+06
